Quick record: AC50, 5-hydroxytryptamine receptor 1A (Homo sapiens, UniProt P08908).
reported endpoint: AC50

compound	assay result
C[C@H](CCC(=O)O)[C@H]1CC[C@H]2[C@@H]3[C@H](O)C[C@@H]4C[C@H](O)CC[C@]4(C)[C@H]3C[C@H](O)[C@]12C	> 30 µM
Cc1ccccc1C(=O)Nc1ccc(C(=O)N2CCCC(O)c3cc(Cl)ccc32)c(C)c1 (configuration not stated)	11 µM
CC(C)C(=O)Oc1ccc(CO)cc1[C@H](CCN(C(C)C)C(C)C)c1ccccc1	> 30 µM
COc1cc(C(C)=O)ccc1OCCCN1CCC(c2noc3cc(F)ccc23)CC1	0.11 µM
C[C@@H]1C[C@H]2[C@@H]3C[C@H](F)C4=CC(=O)C=C[C@]4(C)[C@@]3(F)[C@@H](O)C[C@]2(C)[C@@]1(OC(=O)c1ccco1)C(=O)SCF [FLUTICASONE FUROATE]	> 30 µM
Cc1ccsc1C(=CCCN1CCC[C@@H](C(=O)O)C1)c1sccc1C	> 30 µM
O=C(O)CN(CCN(CC(=O)O)CC(=O)O)CCN(CC(=O)O)CC(=O)O	> 30 µM

###

- target entity: UniProtKB P08172
- Sequence (P08172 whole entry): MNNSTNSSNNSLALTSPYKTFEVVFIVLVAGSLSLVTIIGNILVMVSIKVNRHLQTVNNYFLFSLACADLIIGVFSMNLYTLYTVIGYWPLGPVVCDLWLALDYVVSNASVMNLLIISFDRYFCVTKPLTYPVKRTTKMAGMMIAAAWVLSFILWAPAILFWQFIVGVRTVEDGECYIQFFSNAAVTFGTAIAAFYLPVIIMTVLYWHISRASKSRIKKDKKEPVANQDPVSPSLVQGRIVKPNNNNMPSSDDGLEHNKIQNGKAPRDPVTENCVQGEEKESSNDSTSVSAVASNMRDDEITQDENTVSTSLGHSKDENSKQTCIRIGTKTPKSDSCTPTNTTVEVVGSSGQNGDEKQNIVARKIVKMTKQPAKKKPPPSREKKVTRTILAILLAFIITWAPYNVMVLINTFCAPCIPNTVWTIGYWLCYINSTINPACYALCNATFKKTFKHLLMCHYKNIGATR
- Type: functional, cell-based
Listing of entries alongside the reported AC50.
reported endpoint: AC50

> print(dat)
                                    compound  assay.result
 1  O=C(c1cc(Cc2n[nH]c(=O)c3ccccc23)ccc1F)N1CCN(C(=O)C2CC2)CC1 [OLAPARIB]       > 10 µM
 2  CN(Cc1cnc2nc(N)nc(N)c2n1)c1ccc(C(=O)N[C@@H](CCC(=O)O)C(=O)O)cc1 [METHOTREXATE]       > 10 µM
 3  O=C(O)c1ccc(NC(=O)[C@H](Cc2ccc(O)cc2)NC(=O)c2ccccc2)cc1 [BENTIROMIDE]       > 10 µM
 4  CN(C)CCCN1c2ccccc2CCc2ccccc21 [IMIPRAMINE]       > 10 µM
 5  CCc1cc2c(s1)-n1c(C)nnc1CN=C2c1ccccc1Cl [ETIZOLAM]       > 30 µM
 6  C[C@]12C=CC(=O)C=C1CC[C@@H]1[C@@H]2CC[C@]2(C)OC(=O)CC[C@@H]12 [TESTOLACTONE]       > 10 µM
 7  Oc1ccc(CCNCCCCCCNCCc2ccccc2)cc1O [DOPEXAMINE]       > 30 µM
 8  CC1=C(C(=O)OC(C)C)C(c2cccc([N+](=O)[O-])c2)C(C(=O)OC2CN(C(c3ccccc3)c3ccccc3)C2)=C(N)N1 (stereo not given) [AZELNIDIPINE]       > 30 µM
 9  Cn1c(=O)c2c(ncn2CCOC(=O)C(C)(C)Oc2ccc(Cl)cc2)n(C)c1=O [THEOFIBRATE]       > 30 µM
10  CC=CC1=C(C(=O)O)N2C(=O)[C@@H](NC(=O)[C@H](N)c3ccc(O)cc3)[C@H]2SC1 [CEFPROZIL]       > 30 µM
11  COc1cc(C(C)=O)ccc1OCCCN1CCC(c2noc3cc(F)ccc23)CC1 [ILOPERIDONE]       > 30 µM
12  C[N+]12CCC(CC1)C(OC(=O)C(O)(c1ccccc1)c1ccccc1)C2 (stereo not given)       > 30 µM
13  Cc1ccc(C)c(OCCCC(C)(C)C(=O)O)c1 [GEMFIBROZIL]       > 10 µM
14  CCCCCCCN(CC)CCCC(O)c1ccc(NS(C)(=O)=O)cc1 (stereo not given) [IBUTILIDE]       > 30 µM
15  CC(O)(CS(=O)(=O)c1ccc(F)cc1)C(=O)Nc1ccc(C#N)c(C(F)(F)F)c1 (stereo not given) [BICALUTAMIDE]       > 10 µM
16  CCOc1nc2cccc(C(=O)O)c2n1Cc1ccc(-c2ccccc2-c2nnn[nH]2)cc1       > 30 µM
17  CC(C)(Oc1ccc(CCNC(=O)c2ccc(Cl)cc2)cc1)C(=O)O [BEZAFIBRATE]       > 10 µM
18  CCOC(=O)[C@@H](N)Cc1ccc(-c2cc(O[C@H](c3ccc(Cl)cc3-n3ccc(C)n3)C(F)(F)F)nc(N)n2)cc1 [TELOTRISTAT ETHYL]       > 30 µM
19  COc1ccc(CN2CCN(C(c3ccc(F)cc3)c3ccc(F)cc3)CC2)c(OC)c1OC [LOMERIZINE]       > 30 µM
20  O=C(CCCN1CCC(O)(c2ccc(Br)cc2)CC1)c1ccc(F)cc1 [BROMPERIDOL]       > 30 µM
21  CNC(=C[N+](=O)[O-])NCCSCc1csc(CN(C)C)n1 [NIZATIDINE]       > 10 µM
22   COc1ccc2cc(CCC(C)=O)ccc2c1 [NABUMETONE]       > 10 µM
23  CCOC(=O)c1ccc(C#Cc2ccc3c(c2)C(C)(C)CCS3)nc1 [TAZAROTENE]       > 10 µM
24  CN(C)C/C=C/C(=O)Nc1cc2c(Nc3ccc(F)c(Cl)c3)ncnc2cc1O[C@H]1CCOC1 [AFATINIB]       > 30 µM
25  CO/N=C(\C(=O)N[C@@H]1C(=O)N2C(C(=O)O)=CCS[C@H]12)c1csc(N)n1 [CEFTIZOXIME]       > 30 µM
26  COC(=O)[C@H]1[C@H]2C[C@@H]3c4[nH]c5cc(OC)ccc5c4CCN3C[C@H]2C[C@@H](OC(=O)c2cc(OC)c(OC)c(OC)c2)[C@@H]1OC [RESERPINE]       > 10 µM
27   CCCC(C)(COC(N)=O)COC(N)=O [MEPROBAMATE]       > 10 µM
28  CCC1(CCC(C)C)C(=O)NC(=O)NC1=O [AMOBARBITAL]       > 10 µM
29  O=C1Nc2ccc(Cl)cc2C(c2ccccc2Cl)=NC1O (stereo not given) [LORAZEPAM]       > 10 µM
30  CNCCc1ccc(OC(=O)C(C)C)c(OC(=O)C(C)C)c1 [IBOPAMINE]       > 30 µM
31  CCCN1CC(NS(=O)(=O)N(CC)CC)CC2Cc3c(O)cccc3CC21 (stereo not given) [QUINAGOLIDE]       > 30 µM
32  OC[C@H]1O[C@@H](Oc2cc(O)cc(/C=C/c3ccc(O)cc3)c2)[C@H](O)[C@@H](O)[C@@H]1O [PICEID]       > 30 µM
33   Cc1cc(C2CCCCC2)n(O)c(=O)c1 [CICLOPIROX]       > 30 µM
34  O=C(O)c1cccnc1Nc1cccc(C(F)(F)F)c1 [NIFLUMIC ACID]       > 10 µM
35  CC(C)Cc1ccc([C@H](C)C(=O)O)cc1 [DEXIBUPROFEN]       > 30 µM
